- Organism: Rattus norvegicus
- ASSAY: DrugMatrix - Regimen: Daily Repeat
- Format: toxicity, organism-based, Sprague-Dawley
- Design: regimen Daily Repeat, gender Male, age 6-8 weeks
- PARTICULARS: in vivo, po, 0 mg/kg, 72 h, tissue Plasma, route oral GAVAGE, dose level Control, time 3 day, vehicle 100 % WATER
READOUT_KIND: ASPARTATE AMINOTRANSFERASE (u/L)
API: value field is a number in u/L; no unit string.

// solved cases for ASPARTATE AMINOTRANSFERASE follow
| COMPOUND | U | ASPARTATE AMINOTRANSFERASE |
| --- | --- | --- |
| O=C(O)c1cccnc1 | u/L | 118 |
| Cc1c(N(C)CS(=O)(=O)[O-])c(=O)n(-c2ccccc2)n1C.[Na+] [DIPYRONE SODIUM] | u/L | 89.17 |
| CCCc1nn(C)c2c(=O)[nH]c(-c3cc(S(=O)(=O)N4CCN(C)CC4)ccc3OCC)nc12 | u/L | 82.17 |
| CCCCCCCCCCCCCCCC[n+]1ccccc1.[Br-] | u/L | 106.17 |
| Nc1ccc(S(=O)(=O)Nc2ncccn2)cc1 | u/L | 66 |

Next item in the queue.
What value of measured ASPARTATE AMINOTRANSFERASE is listed for O=C(O)c1cc(=O)c2c(OCC(O)COc3cccc4oc(C(=O)O)cc(=O)c34)cccc2o1 ?
67.33

----------
Below, each of the compounds is paired with its reported HEMOGLOBIN value.
- Species on record: Rattus norvegicus
- ASSAY: DrugMatrix - Regimen: Daily Repeat
- Type: toxicity, organism-based, Sprague-Dawley
- Set-up: regimen Daily Repeat, gender Male, age 6-8 weeks
- PARTICULARS: in vivo, po, 0 mg/kg, 72 h, tissue Blood, route oral GAVAGE, dose level Control, time 3 day, vehicle .5 % CMC
API: value field is a number in G/DL; no unit string.

// solved cases for HEMOGLOBIN follow
| COMPOUND | READOUT_KIND | MEASUREMENT |
| --- | --- | --- |
| CCOC(=O)[C@H](CCc1ccccc1)N[C@@H](C)C(=O)N1Cc2ccccc2C[C@H]1C(=O)O | HEMOGLOBIN | 13.82 |
| C[C@]12C/C(=C/O)C(=O)C[C@@H]1CC[C@@H]1[C@@H]2CC[C@@]2(C)[C@H]1CC[C@]2(C)O [OXYMETHOLONE] | HEMOGLOBIN | 14.1 |
| Nc1cccc(Cl)c1 [3-CHLOROANILINE] | HEMOGLOBIN | 13.52 |
| CCCCC1C(=O)N(c2ccccc2)N(c2ccccc2)C1=O [PHENYLBUTAZONE] | HEMOGLOBIN | 13.35 |
| COc1ccc(/C=C/C(=O)Nc2ccccc2C(=O)O)cc1OC | HEMOGLOBIN | 13.45 |
| Clc1cc2c(cc1Cl)Oc1cc(Cl)c(Cl)cc1O2 [2,3,7,8-TETRACHLORODIBENZO-P-DIOXIN] | HEMOGLOBIN | 13.48 |
| CC(C(=O)O)c1ccc(-c2ccccc2)c(F)c1 (centres undefined) [FLURBIPROFEN] | HEMOGLOBIN | 13.45 |
| CN1C(=O)CN=C(c2ccccc2)c2cc(Cl)ccc21 [DIAZEPAM] | HEMOGLOBIN | 14.22 |

Next item in the queue.
What value of measured HEMOGLOBIN is listed for COc1ccccc1OCC(O)COC(N)=O (centres undefined) [METHOCARBAMOL] ?
13.68

----------
- Species: Rattus norvegicus
- ASSAY: DrugMatrix - Regimen: Daily Repeat
- Type: toxicity, organism-based, Sprague-Dawley
- Design: regimen Daily Repeat, gender Male, age 6-8 weeks
- PARTICULARS: in vivo, po, 15 mg/kg, 72 h, tissue Blood, route oral GAVAGE, dose level High, time 3 day, […]
READOUT_KIND: ABSOLUTE LYMPHOCYTE (cells/µL)
API: value field is a number in cells/µL; no unit string.

What value of measured ABSOLUTE LYMPHOCYTE is listed for CC(CCc1ccc(O)cc1)NCCc1ccc(O)c(O)c1 (stereo unspecified) ?
6060

----------
Below, each of the compounds is paired with its reported GLUCOSE value.
- Species: Rattus norvegicus
- ASSAY: DrugMatrix - Regimen: Daily Repeat
- Type: toxicity, organism-based, Sprague-Dawley
- Set-up: regimen Daily Repeat, gender Male, age 6-8 weeks
- PARTICULARS: in vivo, po, 0 mg/kg, 72 h, tissue Plasma, route oral GAVAGE, dose level Control, time 3 day, vehicle .5 % CMC
API: value field is a number in mg/dL; no unit string.

What value of measured GLUCOSE is listed for C=C(CC)C(=O)c1ccc(OCC(=O)O)c(Cl)c1Cl ?
192.67

What value of measured GLUCOSE is listed for CC(=O)O[C@]1(C(C)=O)CC[C@H]2[C@@H]3C=C(Cl)C4=CC(=O)[C@@H]5C[C@@H]5[C@]4(C)[C@H]3CC[C@@]21C [CYPROTERONE ACETATE] ?
171.5

What value of measured GLUCOSE is listed for C[C@]12C/C(=C/O)C(=O)C[C@@H]1CC[C@@H]1[C@@H]2CC[C@@]2(C)[C@H]1CC[C@]2(C)O ?
193.67

What value of measured GLUCOSE is listed for COc1ccccc1OCC(O)COC(N)=O (stereo not drawn) ?
151.67

What value of measured GLUCOSE is listed for CC(C(=O)O)c1ccc(-c2ccccc2)c(F)c1 (stereo not drawn) ?
171.33

What value of measured GLUCOSE is listed for COc1ccc(/C=C/C(=O)Nc2ccccc2C(=O)O)cc1OC ?
171.33

What value of measured GLUCOSE is listed for CC(C)(Sc1cc(C(C)(C)C)c(O)c(C(C)(C)C)c1)Sc1cc(C(C)(C)C)c(O)c(C(C)(C)C)c1 ?
171.33

What value of measured GLUCOSE is listed for Clc1cc2c(cc1Cl)Oc1cc(Cl)c(Cl)cc1O2 ?
186.83

What value of measured GLUCOSE is listed for Nc1cccc(Cl)c1 ?
171.67

What value of measured GLUCOSE is listed for CO[C@H]1C[C@@H]2CC[C@@H](C)[C@@](O)(O2)C(=O)C(=O)N2CCCC[C@H]2C(=O)O[C@H]([C@H](C)C[C@@H]2CC[C@@H](O)[C@H](OC)C2)CC(=O)[C@H](C)/C=C(\C)[C@@H](O)[C@@H](OC)C(=O)[C@H](C)C[C@H](C)/C=C/C=C/C=C/1C ?
151.67

What value of measured GLUCOSE is listed for O=c1cc(-c2ccccc2)oc2ccc3ccccc3c12 ?
186.83

----------
- Species on record: Rattus norvegicus
- ASSAY: DrugMatrix - Regimen: Daily Repeat
- Type: toxicity, organism-based, Sprague-Dawley
- Set-up: regimen Daily Repeat, gender Male, age 6-8 weeks
- PARTICULARS: in vivo, po, 80 mg/kg, […], tissue Blood, route oral GAVAGE, dose level Low, time 28 day, vehicle .5 % CMC
READOUT_KIND: ABSOLUTE EOSINOPHIL (cells/µL)
API: value field is a number in cells/µL; no unit string.

What value of measured ABSOLUTE EOSINOPHIL is listed for O=c1cc(-c2ccccc2)oc2ccc3ccccc3c12 ?
60

----------
Below, each of the molecules is paired with its reported NEUTROPHIL value.
- Species: Rattus norvegicus
- ASSAY: DrugMatrix - Regimen: Daily Repeat
- Type: toxicity, organism-based, Sprague-Dawley
- Parameters: regimen Daily Repeat, gender Male, age 6-8 weeks
- PARTICULARS: in vivo, po, 0 mg/kg, 120 h, tissue Blood, route oral GAVAGE, dose level Control, time 5 day, vehicle .5 % CMC
API: value field is a number in %; no unit string.

// solved cases for NEUTROPHIL follow
| MOLECULE | U | MEASUREMENT |
| --- | --- | --- |
| CCCCC1C(=O)N(c2ccccc2)N(c2ccccc2)C1=O | % | 10.17 |
| CC(=O)O[C@]1(C(C)=O)CC[C@H]2[C@@H]3C=C(Cl)C4=CC(=O)[C@@H]5C[C@@H]5[C@]4(C)[C@H]3CC[C@@]21C [CYPROTERONE ACETATE] | % | 8.83 |
| C[C@@H]1CC[C@H]2[C@@H](C)C(=O)O[C@@H]3O[C@@]4(C)CC[C@@H]1[C@]32OO4 | % | 8 |

What value of measured NEUTROPHIL is listed for CO[C@H]1C[C@@H]2CC[C@@H](C)[C@@](O)(O2)C(=O)C(=O)N2CCCC[C@H]2C(=O)O[C@H]([C@H](C)C[C@@H]2CC[C@@H](O)[C@H](OC)C2)CC(=O)[C@H](C)/C=C(\C)[C@@H](O)[C@@H](OC)C(=O)[C@H](C)C[C@H](C)/C=C/C=C/C=C/1C ?
8.67

What value of measured NEUTROPHIL is listed for CC[C@]1(O)CC[C@H]2[C@@H]3CCC4=CCCC[C@@H]4[C@H]3CC[C@@]21C ?
16.14

What value of measured NEUTROPHIL is listed for COc1ccccc1OCC(O)COC(N)=O (stereo unspecified) ?
8

What value of measured NEUTROPHIL is listed for Cc1cnc(C(=O)NCCc2ccc(S(=O)(=O)NC(=O)NC3CCCCC3)cc2)cn1 [GLIPIZIDE] ?
8.83

What value of measured NEUTROPHIL is listed for C=C(CC)C(=O)c1ccc(OCC(=O)O)c(Cl)c1Cl ?
11

What value of measured NEUTROPHIL is listed for CC(C)(Sc1cc(C(C)(C)C)c(O)c(C(C)(C)C)c1)Sc1cc(C(C)(C)C)c(O)c(C(C)(C)C)c1 ?
8.33

What value of measured NEUTROPHIL is listed for CCOC(=O)[C@H](CCc1ccccc1)N[C@@H](C)C(=O)N1Cc2ccccc2C[C@H]1C(=O)O ?
8.83

What value of measured NEUTROPHIL is listed for C[C@]12C/C(=C/O)C(=O)C[C@@H]1CC[C@@H]1[C@@H]2CC[C@@]2(C)[C@H]1CC[C@]2(C)O ?
11.97
